# Tgt: TDO2 (Homo sapiens, UniProt P48775)
# Construct: decreased levels of NFK in SW48 cells (high TDO expressing cells)
# Sequence (P48775 whole entry): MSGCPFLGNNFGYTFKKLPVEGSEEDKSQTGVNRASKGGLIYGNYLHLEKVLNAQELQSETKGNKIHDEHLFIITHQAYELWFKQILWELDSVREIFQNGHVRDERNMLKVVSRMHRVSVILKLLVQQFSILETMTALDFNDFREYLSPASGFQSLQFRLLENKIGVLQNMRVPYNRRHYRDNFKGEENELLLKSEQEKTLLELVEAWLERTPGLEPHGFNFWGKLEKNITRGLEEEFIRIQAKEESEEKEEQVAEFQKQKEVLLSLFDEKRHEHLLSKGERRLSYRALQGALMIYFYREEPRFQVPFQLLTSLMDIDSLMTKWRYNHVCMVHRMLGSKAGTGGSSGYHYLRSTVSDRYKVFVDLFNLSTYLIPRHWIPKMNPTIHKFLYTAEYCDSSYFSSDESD
# Method description: TDO2 cell assay (NFK GreenScreen, SW48 cells)
# Format: cell-based
# Measurement context: SW48 cells (high TDO expressing), 200 uM tryptophan, 24 hours; Table 3; read-out: TDO2 Cell Fluor EC50
pEC50: −log10 of the molar value.
Class y: pEC50 at least 6. Class n: pEC50 below 6.

Compound: CS(=O)(=O)N1CCC2(CC1)CC(C1c3ccccc3-c3cncn31)C2O (single isomer, unassigned) [Example 179e]
Class name: n
//
Compound: O[C@@H]1CCC(F)(F)C[C@@H]1[C@H]1c2ccccc2-c2cncn21 (single isomer, unassigned) [Example 18b]
Class name: y
//
Compound: CC(C)C(O)C1c2ccc(F)cc2-c2cncn21 (single isomer, unassigned) [Example 135c]
Class name: n
//
Compound: CC1(C)COCC(C2c3ccccc3-c3cncn32)C1O (single isomer, unassigned) [Example 66g]
Class name: y
//
Compound: OC1c2nccn2CCC1C1c2ccccc2-c2cncn21 (single isomer, unassigned) [Example 88h]
Class name: n
//
Compound: O[C@@H]1CCCC[C@@H]1[C@@H]1c2ccccc2-c2cncn21 [Example 03h]
Class name: n

// switching to the query compound
Data request: Is pEC50 at least 6? Consider N#Cc1cnn2c1C(O)C(C1c3ccccc3-c3cncn31)CC2 (single isomer, unassigned) [Example 156e]
Data returned: y
